B1: library; a variant is named by its letters at N, in order (parent)
chain: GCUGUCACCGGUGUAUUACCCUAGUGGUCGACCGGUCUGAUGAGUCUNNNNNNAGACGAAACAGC

# Variants of: B1
# assayRemarks: normalized RNA/DNA level without ligand (relative to sTRSVctl = 100) (log10 (% of sTRSVctl)); ligand: hypoxanthine (xanthine aptamer); higher = less ribozyme self-cleavage, higher mRNA level
# testSettings: HEK293T, reporter: mCherry (pCS4076), ligand present: no
Would you mind telling me the reported normalized RNA/DNA level without ligand (log10) of each entry?
One number for each entry.

Solved cases below.
[
  {
    "changes": "GCUUCG",
    "obsValue": 1.59
  },
  {
    "changes": "UGCGAA",
    "obsValue": 1.72
  },
  {
    "changes": "CAACUG",
    "obsValue": 1.84
  },
  {
    "changes": "UCGCGC",
    "obsValue": 1.8
  },
  {
    "changes": "UAAGAA",
    "obsValue": 1.68
  },
  {
    "changes": "ACCACU",
    "obsValue": 1.92
  },
  {
    "changes": "CGCCGG",
    "obsValue": 1.61
  },
  {
    "changes": "AUUAGC",
    "obsValue": 1.77
  },
  {
    "changes": "AUUACG",
    "obsValue": 1.4
  },
  {
    "changes": "CAUUUU",
    "obsValue": 1.8
  }
]

Give measured normalized RNA/DNA level without ligand (log10) for every item shown.
1. AUCGAG
2. AUGCCU
3. ACACGA
4. AUUUAA
5. CAACCU
6. UCUCAU

# output
[1.35, 1.82, 1.73, 1.81, 1.91, 1.89]

Give measured normalized RNA/DNA level without ligand (log10) for every item shown.
1. UAUAGU
2. GGACAU

# output
1.57
1.8

Data credit: the supplement of paper PMC6757056
